The entries below come with measured abundance fitness values attached.
B1: GA-binding protein alpha chain, residues 172 to 250; numbered along this chain, Q06546 (parent)
chain: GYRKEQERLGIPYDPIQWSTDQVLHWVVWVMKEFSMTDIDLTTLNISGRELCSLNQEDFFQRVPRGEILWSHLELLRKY

Variants of: B1
experimental-protocol: abundance fitness (aPCA) (normalised: wild type 0, dead -1); higher = more abundant; growth selection in yeast, the domain comes from the species named
settings: Homo sapiens
quantity-measured: abundance fitness

{"columns": ["change", "obs-value"],
 "data": [
  ["Q56P", -0.178],
  ["P12I", -0.912],
  ["L24E", -0.088],
  ["S71T", 0.021],
  ["D38M", -0.364],
  ["W26I", -0.804],
  ["R65L", -0.141],
  ["T37P", 0.014],
  ["E50Y", -0.117],
  ["L73I", -0.542],
  ["E67G", -0.027],
  ["Q17E", 0.049],
  ["T20R", -0.022],
  ["G10M", -0.096],
  ["R8T", -0.117],
  ["Q6P", -0.739],
  ["D21G", -0.002],
  ["L75V", -0.193],
  ["R8G", -0.363],
  ["L44A", -0.715],
  ["P15Q", -0.878],
  ["N55W", -0.782],
  ["S19D", -0.048],
  ["E5Q", -0.485],
  ["I68Q", -0.077],
  ["G10R", -0.085],
  ["E57V", -0.081],
  ["S35W", -0.335],
  ["E5W", -0.442],
  ["R62E", -0.197],
  ["W70C", -0.793],
  ["S35I", -0.781],
  ["V27I", -0.059],
  ["S71F", -0.102],
  ["R3H", -0.098],
  ["I46Q", -0.828],
  ["Y79Q", 0.006],
  ["S19P", -0.82],
  ["R62P", -1.06],
  ["V30L", -0.12],
  ["C52T", -0.226],
  ["E74K", -0.106],
  ["N45F", -0.348],
  ["P15F", -0.717],
  ["Q56C", -0.162],
  ["E50K", -0.041],
  ["H72D", -0.214],
  ["Q61E", -0.041],
  ["P15A", -0.641],
  ["L51E", -0.818],
  ["R49W", -0.143],
  ["I39W", -0.145],
  ["K4V", -0.045],
  ["P15R", -0.56],
  ["F59Y", -0.853],
  ["R49G", -0.125],
  ["G1A", -0.1],
  ["S19H", -0.096],
  ["P64E", -0.23],
  ["H25Q", -0.304],
  ["I46M", 0.069],
  ["E5A", -0.608],
  ["E50I", -0.156],
  ["G1R", 0.091],
  ["E33H", -0.092],
  ["Q56A", -0.044],
  ["H72F", -0.888],
  ["R8F", -0.368],
  ["D21M", -0.134],
  ["L41V", -0.024],
  ["S19F", -0.849],
  ["V30E", -0.08],
  ["M31H", -0.169],
  ["D21R", -0.096],
  ["S35P", -0.091],
  ["D38H", -0.055],
  ["F34K", 0.015],
  ["R77N", -0.119],
  ["D21T", -0.114],
  ["I16H", 0.099],
  ["S47F", -0.866],
  ["L24T", -0.056],
  ["D58R", -0.092],
  ["F60R", 0.003],
  ["L75F", -0.136],
  ["C52A", -0.22],
  ["W70F", -0.181],
  ["M31G", -0.089],
  ["P15V", -0.243],
  ["K32R", -0.024],
  ["M31E", -0.289]
]}

Cited source: the Human Domainome abundance scans (Beltran et al. 2025)
